Target: Acetylcholinesterase (Homo sapiens)
Experiment: Inhibition of AChE (unknown origin) using acetylthiocholine iodide as substrate at 0.5 mM preincubated for 30 mins before substrate addition measured after 30 mins by Ellman method relative to control
EXPERIMENTAL ENDPOINT: inhibition (%)
Write it as a number; the unit % goes unstated.

Worked examples, 3 molecules total:
1. CN(C)CCC[C@@]1(c2ccc(F)cc2)OCc2cc(-c3nnc(-c4cccc([N+](=O)[O-])c4)[nH]3)ccc21: 81.7
2. COc1cccc(-c2nnc(-c3ccc4c(c3)CO[C@@]4(CCCN(C)C)c3ccc(F)cc3)[nH]2)c1: 89.7
3. CN(C)CCC[C@@]1(c2ccc(F)cc2)OCc2cc(-c3nnc(-c4ccc([N+](=O)[O-])cc4)[nH]3)ccc21: 16.2

Now turn to the next molecule.
# input Tell me the measured inhibition of `CN(C)CCC[C@@]1(c2ccc(F)cc2)OCc2cc(-c3nnc(-c4ccccc4N)[nH]3)ccc21` , please.
# output 70.2

---

# collection of pIC50 values tested on UniProt:P06276
# Sequence (P06276 whole entry): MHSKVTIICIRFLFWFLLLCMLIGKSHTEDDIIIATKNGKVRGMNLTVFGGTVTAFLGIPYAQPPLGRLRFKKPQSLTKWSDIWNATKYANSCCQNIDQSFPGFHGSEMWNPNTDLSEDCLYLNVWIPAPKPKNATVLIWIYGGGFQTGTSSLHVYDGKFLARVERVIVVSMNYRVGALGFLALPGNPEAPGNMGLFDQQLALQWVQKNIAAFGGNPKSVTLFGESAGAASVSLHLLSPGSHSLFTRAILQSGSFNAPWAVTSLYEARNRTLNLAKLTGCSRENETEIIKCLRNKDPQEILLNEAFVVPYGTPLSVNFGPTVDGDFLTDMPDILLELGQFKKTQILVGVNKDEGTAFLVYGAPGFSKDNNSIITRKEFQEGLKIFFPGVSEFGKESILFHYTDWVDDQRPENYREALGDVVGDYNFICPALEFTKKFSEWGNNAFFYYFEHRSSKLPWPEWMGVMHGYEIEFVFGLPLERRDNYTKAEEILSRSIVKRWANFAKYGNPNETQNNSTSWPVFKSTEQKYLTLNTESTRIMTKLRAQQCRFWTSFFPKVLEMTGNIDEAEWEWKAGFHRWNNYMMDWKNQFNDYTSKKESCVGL
Convention used: pIC50 is expressed as -log10 of the molar concentration.

1) CN(C)CCC[C@@]1(c2ccc(F)cc2)OCc2cc(-c3nnc(-c4ccc(N)cc4)[nH]3)ccc21: 3.92
2) Cc1ccccc1-c1nnc(-c2ccc3c(c2)CO[C@@]3(CCCN(C)C)c2ccc(F)cc2)[nH]1: 4.00
3) Cc1ccc(-c2nnc(-c3ccc4c(c3)CO[C@@]4(CCCN(C)C)c3ccc(F)cc3)[nH]2)cc1: 3.82
4) CN(C)CCC[C@@]1(c2ccc(F)cc2)OCc2cc(-c3nnc(-c4ccccc4)[nH]3)ccc21: 3.89
5) CN(C)CCC[C@@]1(c2ccc(F)cc2)OCc2cc(-c3nnc(-c4ccc(O)cc4)[nH]3)ccc21: 3.85
6) CN(C)CCC[C@@]1(c2ccc(F)cc2)OCc2cc(-c3nnc(-c4cccc(I)c4)[nH]3)ccc21: 3.73
7) CN(C)CCC[C@@]1(c2ccc(F)cc2)OCc2cc(-c3nnc(-c4ccccc4Cl)[nH]3)ccc21: 4.09

# input Form field: pIC50 recorded for `CN(C)CCC[C@@]1(c2ccc(F)cc2)OCc2cc(-c3nnc(-c4cccc(O)c4)[nH]3)ccc21` with UniProt:P06276 (enter value)
# output 3.93

---

Some molecules, each annotated with its measured inhibition.
Target: Acetylcholinesterase (Homo sapiens, UniProt P22303)
Sequence (P22303 whole entry): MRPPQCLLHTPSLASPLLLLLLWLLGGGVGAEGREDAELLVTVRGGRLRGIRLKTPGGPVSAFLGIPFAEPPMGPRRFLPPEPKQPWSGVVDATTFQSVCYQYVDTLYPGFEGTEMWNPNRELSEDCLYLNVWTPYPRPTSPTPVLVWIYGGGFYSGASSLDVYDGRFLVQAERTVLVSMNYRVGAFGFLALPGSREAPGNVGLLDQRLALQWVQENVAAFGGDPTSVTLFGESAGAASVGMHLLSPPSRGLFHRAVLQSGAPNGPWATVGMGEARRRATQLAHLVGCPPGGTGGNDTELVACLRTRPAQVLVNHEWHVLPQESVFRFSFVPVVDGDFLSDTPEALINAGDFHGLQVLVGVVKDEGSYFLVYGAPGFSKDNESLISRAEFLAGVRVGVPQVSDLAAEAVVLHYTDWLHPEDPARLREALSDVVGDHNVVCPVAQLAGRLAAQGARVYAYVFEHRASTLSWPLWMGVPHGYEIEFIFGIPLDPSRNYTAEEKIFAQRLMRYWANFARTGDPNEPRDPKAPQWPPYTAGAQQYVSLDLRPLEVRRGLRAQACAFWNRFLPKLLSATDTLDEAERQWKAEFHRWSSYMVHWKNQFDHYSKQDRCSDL
Assay: Inhibition of AChE (unknown origin) using acetylthiocholine iodide as substrate at 0.5 mM preincubated for 30 mins before substrate addition measured after 30 mins by Ellman method relative to control
Respond with the bare value in %.

1. CN(C)CCC[C@@]1(c2ccc(F)cc2)OCc2cc(-c3nnc(-c4ccccc4Br)[nH]3)ccc21: 19.4
2. CN(C)CCC[C@@]1(c2ccc(F)cc2)OCc2cc(-c3nnc(-c4ccc(I)cc4)[nH]3)ccc21: 30.5

# input Sample `CN(C)CCC[C@@]1(c2ccc(F)cc2)OCc2cc(-c3nnc(-c4cccc(F)c4)[nH]3)ccc21` — what was its inhibition?
# output 32.2

# input What value of measured inhibition is listed for `CN(C)CCC[C@@]1(c2ccc(F)cc2)OCc2cc(-c3nnc(-c4ccccc4Cl)[nH]3)ccc21` ?
# output 19.5

# input Reported inhibition, molecule `CN(C)CCC[C@@]1(c2ccc(F)cc2)OCc2cc(-c3nnc(-c4ccc(F)cc4)[nH]3)ccc21` : ____
# output 71.5

# input // inhibition lookup, key: `CN(C)CCC[C@@]1(c2ccc(F)cc2)OCc2cc(-c3nnc(-c4cccc(Br)c4)[nH]3)ccc21`
# output 37.9

# input Which inhibition value belongs to `COc1ccccc1-c1nnc(-c2ccc3c(c2)CO[C@@]3(CCCN(C)C)c2ccc(F)cc2)[nH]1` ?
# output 80.4
